From: patent US20240058464A1

Test system: CD46 expression
assay.summary: CD46 expression by RNA-sequencing in unpaired pre-treatment and post-treatment tumor biopsies
Assay type: in vivo, human
test.conditions: Pancreatic Cancer; post- vs pre-treatment unpaired biopsies
Here the recorded CD46 expression Percentage change is given for each entry.
experimental.endpoint: CD46 expression Percentage change (%)

# compound, reading.unit, observed
rows = [
    ("N.N.[Cl][Pt][Cl] [cisplatin]", "%", 3.1),
    ("O=C1[O][Pt]2([NH][C@@H]3CCCC[C@H]3[NH]2)[O]C1=O [oxaliplatin]", "%", "−2.2"),
    ("CCCCCOC(=O)Nc1nc(=O)n([C@@H]2O[C@H](C)[C@@H](O)[C@H]2O)cc1F [capecitabine]", "%", 1.2),
    ("Nc1ccn([C@@H]2O[C@H](CO)[C@@H](O)C2(F)F)c(=O)n1 [gemcitabine]", "%", 0.1),
]

----------
This section presents molecules with their documented CD46 expression Post values.
Tested on: CD46 expression
assay.summary: CD46 expression by RNA-sequencing in unpaired pre-treatment and post-treatment tumor biopsies
Format: in vivo, human
test.conditions: Esophageal Cancer; post-treatment biopsies, unpaired; RNA-seq log2-transformed normalized counts
experimental.endpoint: CD46 expression Post

# molecule, target.entity, observed
measured = [
    ("CC(=O)O[C@H]1C(=O)[C@@]2(C)[C@H]([C@H](OC(=O)c3ccccc3)[C@]3(O)C[C@H](OC(=O)[C@H](O)[C@@H](NC(=O)c4ccccc4)c4ccccc4)C(C)=C1C3(C)C)[C@]1(OC(C)=O)CO[C@@H]1C[C@@H]2O", "CD46 expression", 5.79),
    ("O=C1[O][Pt]2([NH][C@@H]3CCCC[C@H]3[NH]2)[O]C1=O", "CD46 expression", 5.85),
    ("O=c1[nH]cc(F)c(=O)[nH]1", "CD46 expression", 5.83),
    ("Nc1nc2c(c(=O)[nH]1)N(C=O)C(CNc1ccc(C(=O)N[C@@H](CCC(=O)O)C(=O)O)cc1)CN2 (stereo partly drawn)", "CD46 expression", 5.84),
    ("CCCCCOC(=O)Nc1nc(=O)n([C@@H]2O[C@H](C)[C@@H](O)[C@H]2O)cc1F", "CD46 expression", 6.02),
    ("N.N.O=C([O-])C1(C(=O)[O-])CCC1.[Pt+2]", "CD46 expression", 5.79),
]

----------
Listing: CD46 expression Percentage change of selected compounds
Tested on: CD46 expression
assay.summary: CD46 expression by RNA-sequencing in unpaired pre-treatment and post-treatment tumor biopsies
Type: in vivo, human
test.conditions: Breast Cancer; post- vs pre-treatment unpaired biopsies

# mol.smiles, reading.unit, CD46 expression Percentage change
rows = [
    ("CCCCCOC(=O)Nc1nc(=O)n([C@@H]2O[C@H](C)[C@@H](O)[C@H]2O)cc1F", "%", "−1.2"),
    ("CC(C)C[C@H](NC(=O)[C@@H](COC(C)(C)C)NC(=O)[C@H](Cc1ccc(O)cc1)NC(=O)[C@H](CO)NC(=O)[C@H](Cc1c[nH]c2ccccc12)NC(=O)[C@H](Cc1cnc[nH]1)NC(=O)[C@@H]1CCC(=O)N1)C(=O)N[C@@H](CCCNC(=N)N)C(=O)N1CCC[C@H]1C(=O)NNC(N)=O", "%", "−0.1"),
    ("CC(C)(C#N)c1cc(Cn2cncn2)cc(C(C)(C)C#N)c1", "%", 0.9),
]

----------
Tested on: CD46 expression
assay.summary: CD46 expression by RNA-sequencing in paired tumor biopsies before and after therapy;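 note: FFPE human tumor biopsies, exome-capture RNA-seq, reads aligned to GRCh37, counts normalized for GC content, length and depth, summed per gene, log2-transformed, samples paired before versus after therapy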
test.conditions: Non-Small Cell Lung Cancer; paired biopsies

# compound, Percent Change in CD46 expression, %
measured = [
    ("CC(=O)O[C@H]1C(=O)[C@@]2(C)[C@H]([C@H](OC(=O)c3ccccc3)[C@]3(O)C[C@H](OC(=O)[C@H](O)[C@@H](NC(=O)c4ccccc4)c4ccccc4)C(C)=C1C3(C)C)[C@]1(OC(C)=O)CO[C@@H]1C[C@@H]2O", "−3.7"),
    ("C=CC(=O)Nc1cc(Nc2nccc(-c3cn(C)c4ccccc34)n2)c(OC)cc1N(C)CCN(C)C", "−4.0"),
    ("N.N.[Cl][Pt][Cl] [cisplatin]", "−7.2"),
    ("Nc1nc2[nH]cc(CCc3ccc(C(=O)N[C@@H](CCC(=O)O)C(=O)O)cc3)c2c(=O)[nH]1", "−3.1"),
    ("N.N.O=C([O-])C1(C(=O)[O-])CCC1.[Pt+2]", "−1.0"),
]

----------
The reader will find reported CD46 expression Percentage change values listed item by item below.
Test system: CD46 expression
assay.summary: CD46 expression by RNA-sequencing in unpaired pre-treatment and post-treatment tumor biopsies
Assay type: in vivo, human
test.conditions: Prostate Cancer; post- vs pre-treatment unpaired biopsies

# molecule, CD46 expression Percentage change (%)
data = [
    ("CNC(=O)c1ccc(N2C(=S)N(c3cnc(C#N)c(C(F)(F)F)c3)C(=O)C23CCC3)cc1F [apalutamide]", "−0.5"),
    ("CC(O)(CS(=O)(=O)c1ccc(F)cc1)C(=O)Nc1ccc(C#N)c(C(F)(F)F)c1 (stereo not drawn) [bicalutamide]", "−0.9"),
    ("CO[C@H]1C(=O)[C@]2(C)[C@@H](OC)C[C@H]3OC[C@@]3(OC(C)=O)[C@H]2[C@H](OC(=O)c2ccccc2)[C@]2(O)C[C@H](OC(=O)[C@H](O)[C@@H](NC(=O)OC(C)(C)C)c3ccccc3)C(C)=C1C2(C)C", 1.6),
    ("C[C@]12CC[C@H](O)CC1=CC[C@@H]1[C@@H]2CC[C@]2(C)C(c3cccnc3)=CC[C@@H]12", "−1.1"),
    ("CNC(=O)c1ccc(N2C(=S)N(c3ccc(C#N)c(C(F)(F)F)c3)C(=O)C2(C)C)cc1F [enzalutamide]", 0.4),
    ("CC(=O)O[C@@]12CO[C@@H]1C[C@H](O)[C@@]1(C)C(=O)[C@H](O)C3=C(C)[C@@H](OC(=O)[C@H](O)[C@@H](NC(=O)OC(C)(C)C)c4ccccc4)C[C@@](O)([C@@H](OC(=O)c4ccccc4)[C@H]21)C3(C)C", "−2.2"),
]

----------
Tested on: CD46 expression
assay.summary: CD46 expression by RNA-sequencing in unpaired pre-treatment and post-treatment tumor biopsies
Type: in vivo, human
test.conditions: Breast Cancer; post- vs pre-treatment unpaired biopsies
The compounds listed here are annotated with their CD46 expression Percentage change.
experimental.endpoint: CD46 expression Percentage change (%)

# compound, target.entity, experimental.endpoint, observed
records = [
    ("N.N.[Cl][Pt][Cl] [cisplatin]", "CD46 expression", "CD46 expression Percentage change", 0.3),
    ("CC(=O)O[C@@]12CO[C@@H]1C[C@H](O)[C@@]1(C)C(=O)[C@H](O)C3=C(C)[C@@H](OC(=O)[C@H](O)[C@@H](NC(=O)OC(C)(C)C)c4ccccc4)C[C@@](O)([C@@H](OC(=O)c4ccccc4)[C@H]21)C3(C)C", "CD46 expression", "CD46 expression Percentage change", 0.7),
    ("C[C@H]1C[C@@H]2[C@H]([C@@H](O)C[C@@]3(C)[C@H]2CC[C@]3(O)C(=O)CO)[C@@]2(C)C=CC(=O)C=C12", "CD46 expression", "CD46 expression Percentage change", 5.0),
    ("Cc1nc(NC(=O)N2CCC[C@H]2C(N)=O)sc1-c1ccnc(C(C)(C)C(F)(F)F)c1", "CD46 expression", "CD46 expression Percentage change", 2.0),
    ("O=C(c1cc(Cc2n[nH]c(=O)c3ccccc23)ccc1F)N1CCN(C(=O)C2CC2)CC1", "CD46 expression", "CD46 expression Percentage change", 0.6),
    ("C[C@]12CC[C@@H]3c4ccc(O)cc4C[C@@H](CCCCCCCCC[S+]([O-])CCCC(F)(F)C(F)(F)F)[C@H]3[C@@H]1CC[C@@H]2O (stereo partly drawn)", "CD46 expression", "CD46 expression Percentage change", "−1.2"),
]

----------
System: CD46 expression
assay.summary: CD46 expression by RNA-sequencing in unpaired pre-treatment and post-treatment tumor biopsies
Assay type: in vivo, human
test.conditions: Biliary Cancer; Post minus Pre, unpaired biopsies; log2-transformed counts
Below, each of the molecules is paired with its reported CD46 expression diff value.
experimental.endpoint: CD46 expression diff

# molecule, observed
measured = [
    ("O=C1[O][Pt]2([NH][C@@H]3CCCC[C@H]3[NH]2)[O]C1=O", 0.05),
    ("CCCCCOC(=O)Nc1nc(=O)n([C@@H]2O[C@H](C)[C@@H](O)[C@H]2O)cc1F", 0.10),
    ("Nc1ccn([C@@H]2O[C@H](CO)[C@@H](O)C2(F)F)c(=O)n1", "−0.03"),
    ("N.N.[Cl][Pt][Cl] [cisplatin]", "−0.06"),
    ("Nc1nc2c(c(=O)[nH]1)N(C=O)C(CNc1ccc(C(=O)N[C@@H](CCC(=O)O)C(=O)O)cc1)CN2 (stereo partly drawn)", 0.00),
    ("O=c1[nH]cc(F)c(=O)[nH]1", 0.00),
]
